System Under Test: T1, recombinant HIS-tagged cyno nectin-4 (Acro Biosystems Cat. No. NE4-C52H4) (cyno, UniProt A0A2K5WES1 32-349)
T1 construct: Bought protein; HIS tag not described
T1 sequence: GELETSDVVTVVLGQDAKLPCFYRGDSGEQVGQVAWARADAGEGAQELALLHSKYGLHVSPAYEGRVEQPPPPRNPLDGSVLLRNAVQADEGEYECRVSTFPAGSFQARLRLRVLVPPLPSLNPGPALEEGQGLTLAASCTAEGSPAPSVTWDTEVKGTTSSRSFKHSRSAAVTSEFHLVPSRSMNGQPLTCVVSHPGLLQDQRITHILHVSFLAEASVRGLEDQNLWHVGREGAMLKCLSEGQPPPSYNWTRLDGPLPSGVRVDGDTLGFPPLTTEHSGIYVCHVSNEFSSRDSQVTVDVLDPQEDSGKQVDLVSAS
Assay Procedure: SPR Biacore 8K+, ADC captured via anti-human Fc, nectin-4 analyte, 37 C;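 also: Nectin-4 injected over captured ADC at 0 to 600 nM for 2 min association, then 10 min dissociation, with a reference flow cell lacking ADC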
Parameter Measured: kon (M⁻¹ s⁻¹)
The response must be a number in M⁻¹ s⁻¹ with no trailing unit.

Binder: Ab7 ADC (Ab7 conjugated as in Formula XI, DAR of 8) (antibody, human IgG1, lambda, L234A L235A, V domains shown, camptothecin analog linker-payload of Formula XI on cysteine thiols after full reduction, DAR of 8 per antibody; positions not given, Antibody-drug conjugate of Ab7; also called Ab7 (ADC column)) VH: QVQLVQSGAEVKKPGASVKVSCKASGYTFTNYYMHWVRQAPGQGLEWMGIINPSSGSASYAQKFQGRVTMTRDTSTSTVYMELSSLRSEDTAVYYCAREGVGRDILQAFDIWGQGTLVTVSS VL: QSVLTQPPSVSEAPRQRVTISCSGSSSNIGNNAVNWYQQLPGKAPKLLIYYDDLLPSGVSDRFSGSKSGTSASLAISGLQSEDEADYYCAAWDDSLNGHVFGGGTKLTVLG
Unit Descriptor: M⁻¹ s⁻¹
Endpoint Result: 1.18e+06

Input line: Please look at this binder and report its kon: Ab8 ADC (Ab8 conjugated as in Formula XI, DAR of 8) (antibody, human IgG1, lambda, L234A L235A, V domains shown, camptothecin analog linker-payload of Formula XI on cysteine thiols after full reduction, DAR of 8 per antibody; positions not given, Antibody-drug conjugate of Ab8; also called Ab8 (ADC column)) VH: QVQLVQSGAEVKKPGASVKVSCKASGYTFTSYYIHWVRQAPGQGLEWMGIINPISGRTSSAQKFQGRVTMTRDTSTSTVYMELSSLRSEDTAVYYCAKEGVGGELLRAFDIWGQGTLVTVSS VL: QSVLTQPPSVSEAPRQRVTISCSGSSSNIGNNAVNWYQQLPGKAPKLLIYYDDLLPSGVSDRFSGSKSGTSASLAISGLQSEDEADYYCAAWDDSLNGFVFGGGTKLTVLG
Output line: 1.25e+06

Input line: Please look at this binder and report its kon: Ab5 ADC (Ab5 conjugated as in Formula XI, DAR of 8) (antibody, human IgG1, kappa, L234A L235A, V domains shown, camptothecin analog linker-payload of Formula XI on cysteine thiols after full reduction, DAR of 8 per antibody; positions not given, Antibody-drug conjugate of Ab5; also called Ab5 (ADC column)) VH: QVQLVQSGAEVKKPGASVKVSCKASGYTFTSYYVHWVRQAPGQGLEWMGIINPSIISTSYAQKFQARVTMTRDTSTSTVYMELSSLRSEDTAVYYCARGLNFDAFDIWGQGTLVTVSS VL: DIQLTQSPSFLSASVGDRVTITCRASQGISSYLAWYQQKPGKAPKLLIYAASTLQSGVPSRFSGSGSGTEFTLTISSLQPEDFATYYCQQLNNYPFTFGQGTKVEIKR
Output line: 1.06e+06

Input line: Please look at this binder and report its kon: Ab3 ADC (Ab3 conjugated as in Formula XI, DAR of 8) (antibody, human IgG1, kappa, L234A L235A, V domains shown, camptothecin analog linker-payload of Formula XI on cysteine thiols after full reduction, DAR of 8 per antibody; positions not given, Antibody-drug conjugate of Ab3; also called Ab3 (ADC column)) VH: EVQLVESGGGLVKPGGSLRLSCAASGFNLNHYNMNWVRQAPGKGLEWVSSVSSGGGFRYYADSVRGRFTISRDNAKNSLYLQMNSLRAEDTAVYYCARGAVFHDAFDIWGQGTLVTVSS VL: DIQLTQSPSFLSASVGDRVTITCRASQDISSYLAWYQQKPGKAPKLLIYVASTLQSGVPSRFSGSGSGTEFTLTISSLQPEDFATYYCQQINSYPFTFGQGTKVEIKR
Output line: 432000
